# System: Clone20 osteoblast Shn3 3'UTR firefly luciferase, 24 h
# Assay Procedure: Shn3 3'UTR reporter inhibitors, dose response, cell-based, Clone20 osteoblasts, luminescence, dry powder, set 2 (AID 743417)
Records with an inconclusive call do not appear.
Result Type: AC50

Query block: Answer with the recorded AC50 for the molecule listed here: Cc1cccc(C(=O)Nc2ccc(C(=O)/C=C/c3cccnc3)cc2)c1
Result block: 6230 nM

Query block: Assign AC50 to the following record: Cc1cccc(CS(=O)(=O)c2ncc(Cl)c(C(=O)NCc3ccccc3)n2)c1
Result block: 2940 nM

Query block: Consider the molecule COc1ccc(CN(C)c2ccc(S(=O)(=O)N3CCN(C)CC3)cc2[N+](=O)[O-])cc1OC . State its measured AC50.
Result block: 691 nM

Query block: Read the entry C#CCn1c(=NC(=O)c2ccc(S(=O)(=O)N3CCc4ccccc4C3)cc2)sc2cc(S(N)(=O)=O)ccc21 and write its reported AC50.
Result block: 1290 nM

Query block: Name the recorded AC50 of the molecule listed here: CC1=C(C#N)C(C(F)(F)F)(C(F)(F)F)N=C(c2ccco2)N1
Result block: 7720 nM

---

# Tested on: Clone20 osteoblast Shn3 3'UTR firefly luciferase, 24 h
# Assay Procedure: Shn3 3'UTR reporter inhibitors, dose response, cell-based, Clone20 osteoblasts, luminescence, dry powder, set 2 (AID 743417)
Inconclusive results are not listed. The source made the active and inactive calls.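 How the source made its calls: active means compounds lowering the luciferase signal with a fitted half-maximal dose at most twice their top valid dose (cut at about 30 µM in these data); inconclusive means flat fits with moderate signal loss, or poor fits; inactive means the rest.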
Result Type: AC50

Query block: Tell me AC50 reported for Cc1cccc(NC(=O)Cn2cc(C(=O)C3CC3)c3ccccc32)c1C
Result block: 2390 nM

Query block: Given the molecule C=C1C(=O)[C@@]23[C@H](O)C[C@@H]4C(C)(C)CC[C@H](O)[C@]4(C)[C@@H]2C[C@H](O)[C@@H]1[C@H]3O , write its reported AC50.
Result block: 2950 nM

Query block: Tell me its AC50 given Cc1ccccc1C(=O)N1CCN(c2ccc(NC(=O)c3ccc([N+](=O)[O-])o3)cc2)CC1 as the entry.
Result block: 864 nM

Query block: Identify measured AC50 associated with N#C/C(=C(\O)Cc1ccccc1)c1nc2ccccc2[nH]1
Result block: > 70000 nM (inactive)

Next:
Query block: Please give the documented AC50 of CN1OC[C@@H]2CN[C@H](c3ccc(-c4cc5ccccc5o4)cc3)C[C@@H]21
Result block: < 260 nM

---

# Test system: Clone20 osteoblast Shn3 3'UTR firefly luciferase, 24 h
# Assay Procedure: Shn3 3'UTR reporter inhibitors, dose response, cell-based, Clone20 osteoblasts, luminescence, dry powder, set 2 (AID 743417)
Records with an inconclusive call do not appear.
Reported AC50 is given for each of the following molecules.

Example entries and their recorded answers appear below.
Query block: # return AC50 for CCCCCOC(=O)c1[nH]c2c(c1C)C(=O)CC(c1ccco1)C2 (stereo not given) , test system: Clone20 osteoblast Shn3 3'UTR firefly luciferase, 24 h
Result block: 1.49 µM

Query block: Fill in AC50 for CC1CCN(c2ccccc2NC(=S)NC(=O)c2ccc(-c3cccc([N+](=O)[O-])c3)o2)CC1 tested with Clone20 osteoblast Shn3 3'UTR firefly luciferase, 24 h.
Result block: 3.07 µM

Query block: State AC50 on Clone20 osteoblast Shn3 3'UTR firefly luciferase, 24 h. Entry: CC(C)NCC(O)COc1cccc2ccccc12 (stereo not given)
Result block: 23.6 µM

Query block: Give AC50 for CC(Oc1ccc(F)cc1)C(=O)N(CCC1=CCCCC1)c1c(N)n(Cc2ccccc2)c(=O)[nH]c1=O (stereo not given) tested on Clone20 osteoblast Shn3 3'UTR firefly luciferase, 24 h.
Result block: 7.99 µM

Query block: Report AC50 from Clone20 osteoblast Shn3 3'UTR firefly luciferase, 24 h testing of CC(C)(C)C(=O)Cn1ncc(Br)c(Br)c1=O
Result block: 9.51 µM

The record that follows has no AC50 shown yet.
Query block: Report the value of AC50 obtained on Clone20 osteoblast Shn3 3'UTR firefly luciferase, 24 h for CCOC(=O)Cn1c(S(=O)(=O)Cc2ccccc2Cl)nc(-c2ccccc2)c1-c1ccccc1 .
Result block: 9.29 µM
